Assay System: 11β-hydroxysteroid dehydrogenase (HSD) 1 (Homo sapiens, UniProt P28845)
Construct: detecting cortisol generated from cortisterone by human liver microsomes; from tissue; host or cells: human liver microsomes
Sequence (P28845 whole entry): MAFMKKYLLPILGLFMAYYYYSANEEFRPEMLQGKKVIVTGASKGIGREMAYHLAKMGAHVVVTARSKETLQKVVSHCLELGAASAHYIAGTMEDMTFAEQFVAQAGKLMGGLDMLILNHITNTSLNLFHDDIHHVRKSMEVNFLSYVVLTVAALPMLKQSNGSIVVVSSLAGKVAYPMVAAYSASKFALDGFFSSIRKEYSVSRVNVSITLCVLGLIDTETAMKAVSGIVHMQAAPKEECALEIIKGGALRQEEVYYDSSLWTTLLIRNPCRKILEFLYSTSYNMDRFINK
Method Description: In vitro inhibition of 11β-HSD1, HTRF detection of cortisol generated from cortisone by human liver microsomes
Type: biochemical
Test Parameters: compound concentration 1 μM, 100% indicates no inhibition, zero or below zero indicates complete inhibition
Recorded Metric: 11β-HSD 1 inhibitory activity (% CTL at 1 μM) (% CTL)
The response must be a number in % CTL with no trailing unit.

Please review the following examples before continuing.
>>> test_value("CN(Cc1ccccc1)C(=O)C12CC3CC(C1)CC(C14CC5CC(CC(C(=O)O)(C5)C1)C4)(C3)C2 [Example 9]")
49
>>> test_value("CN(C(=O)C12CC3CC(C1)CC(C14CC5CC(CC(C(=O)O)(C5)C1)C4)(C3)C2)C1CCC(C(C)(C)C)CC1 (stereo not drawn) [Example 38]")
7

Now examine the next entry.
What the record says about CN(C)C(=O)c1ccc(Oc2ccc3c(c2)CN(C(=O)C24CC5CC(C2)CC(C26CC7CC(CC(C(=O)O)(C7)C2)C6)(C5)C4)CC3)cc1 [Example 46] : 11β-HSD 1 inhibitory activity (% CTL at 1 μM) is 0

---

Assay System: 11β-hydroxysteroid dehydrogenase (HSD) 1 (Homo sapiens, UniProt P28845)
Construct: detecting cortisol generated from cortisterone by human liver microsomes; from tissue; host or cells: human liver microsomes
Method Description: In vitro inhibition of 11β-HSD1, HTRF detection of cortisol generated from cortisone by human liver microsomes
Assay type: biochemical
Test Parameters: compound concentration 1 μM, 100% indicates no inhibition, zero or below zero indicates complete inhibition
Recorded Metric: 11β-HSD 1 inhibitory activity (% CTL at 1 μM) (% CTL)
The response must be a number in % CTL with no trailing unit.

Please review the following examples before continuing.
>>> test_value("O=C(O)C12CC3CC(C1)CC(C14CC5CC(CC(c6nc7ccccc7o6)(C5)C1)C4)(C3)C2")
12
>>> test_value("O=C(O)C12CC3CC(C1)CC(C14CC5CC(CC(C(=O)N6CCOCC6)(C5)C1)C4)(C3)C2")
1
>>> test_value("O=C(O)C12CC3CC(C1)CC(C14CC5CC(CC(c6nc7ccccc7n6CCc6ccccc6)(C5)C1)C4)(C3)C2")
0
>>> test_value("O=C(O)C12CC3CC(C1)CC(C14CC5CC(CC(C6=NCc7ccccc7N6)(C5)C1)C4)(C3)C2")
62
>>> test_value("NC12CC3CC(C1)CC(C14CC5CC(CC(C(=O)O)(C5)C1)C4)(C3)C2")
95
>>> test_value("CC(C)(O)C12CC3CC(C1)CC(C14CC5CC(CC(C(=O)O)(C5)C1)C4)(C3)C2")
"−11"
>>> test_value("O=C(O)C12CC3CC(C1)CC(C14CC5CC(CC(C(=O)N6Cc7ccccc7C6)(C5)C1)C4)(C3)C2")
"−36"
>>> test_value("CN(C(=O)C12CC3CC(C1)CC(C14CC5CC(CC(C(=O)O)(C5)C1)C4)(C3)C2)C1CCCC1")
"−20"

What the record says about O=C(O)C12CC3CC(C1)CC(C14CC5CC(CC(c6nnn[nH]6)(C5)C1)C4)(C3)C2 : 11β-HSD 1 inhibitory activity (% CTL at 1 μM) is 69

What the record says about COc1ccc(N(C)C(=O)C23CC4CC(C2)CC(C25CC6CC(CC(C(=O)O)(C6)C2)C5)(C4)C3)cc1 : 11β-HSD 1 inhibitory activity (% CTL at 1 μM) is 81

What the record says about NC(=O)C12CC3CC(C1)CC(C14CC5CC(CC(C(=O)O)(C5)C1)C4)(C3)C2 : 11β-HSD 1 inhibitory activity (% CTL at 1 μM) is 50

What the record says about CN(C)C(=O)C12CC3CC(C1)CC(C14CC5CC(CC(C(=O)O)(C5)C1)C4)(C3)C2 : 11β-HSD 1 inhibitory activity (% CTL at 1 μM) is −13

What the record says about O=C(O)C12CC3CC(C1)CC(C14CC5CC(CC(C(=O)N6CCCC6)(C5)C1)C4)(C3)C2 : 11β-HSD 1 inhibitory activity (% CTL at 1 μM) is −11

What the record says about CN(C(=O)C12CC3CC(C1)CC(C14CC5CC(CC(C(=O)O)(C5)C1)C4)(C3)C2)C1CCCCC1 : 11β-HSD 1 inhibitory activity (% CTL at 1 μM) is −8

What the record says about N#CC12CC3CC(C1)CC(C14CC5CC(CC(C(=O)O)(C5)C1)C4)(C3)C2 : 11β-HSD 1 inhibitory activity (% CTL at 1 μM) is 1

---

Assay System: 11β-hydroxysteroid dehydrogenase (HSD) 1 (Homo sapiens, UniProt P28845)
Construct: detecting cortisol generated from cortisterone by human liver microsomes; from tissue; host or cells: human liver microsomes
Method Description: In vitro inhibition of 11β-HSD1, HTRF detection of cortisol generated from cortisone by human liver microsomes
Format: biochemical
Test Parameters: compound concentration 1 μM, 100% indicates no inhibition, zero or below zero indicates complete inhibition
Recorded Metric: 11β-HSD 1 inhibitory activity (% CTL at 1 μM) (% CTL)
The response must be a number in % CTL with no trailing unit.

Please review the following examples before continuing.
>>> test_value("Cn1c(C23CC4CC(C2)CC(C25CC6CC(CC(C(=O)O)(C6)C2)C5)(C4)C3)nc2ccccc21")
8
>>> test_value("N#Cc1ccc2c(c1)CN(C(=O)C13CC4CC(C1)CC(C15CC6CC(CC(C(=O)O)(C6)C1)C5)(C4)C3)CC2")
"−17"
>>> test_value("O=C(O)C12CC3CC(C1)CC(C14CC5CC(CC(C(=O)N6CCc7ccccc7C6)(C5)C1)C4)(C3)C2")
"−20"

What the record says about CCN(C)C(=O)C12CC3CC(C1)CC(C14CC5CC(CC(C(=O)O)(C5)C1)C4)(C3)C2 : 11β-HSD 1 inhibitory activity (% CTL at 1 μM) is −26

What the record says about COc1ccc(C(=O)C23CC4CC(C2)CC(C25CC6CC(CC(C(=O)O)(C6)C2)C5)(C4)C3)cc1 : 11β-HSD 1 inhibitory activity (% CTL at 1 μM) is −33

What the record says about COC(=O)C12CC3CC(C1)CC(C14CC5CC(CC(C(=O)O)(C5)C1)C4)(C3)C2 : 11β-HSD 1 inhibitory activity (% CTL at 1 μM) is −7

What the record says about O=C(O)C12CC3CC(C1)CC(C14CC5CC(CC(C(=O)Nc6ccccc6)(C5)C1)C4)(C3)C2 : 11β-HSD 1 inhibitory activity (% CTL at 1 μM) is 96

---

// reported 11β-HSD 1 inhibitory activity (% CTL at 1 μM) for each item listed
Assay System: 11β-hydroxysteroid dehydrogenase (HSD) 1 (Homo sapiens, UniProt P28845)
Construct: detecting cortisol generated from cortisterone by human liver microsomes; from tissue; host or cells: human liver microsomes
Method Description: In vitro inhibition of 11β-HSD1, HTRF detection of cortisol generated from cortisone by human liver microsomes
Assay type: biochemical
Test Parameters: compound concentration 1 μM, 100% indicates no inhibition, zero or below zero indicates complete inhibition
The response must be a number in % CTL with no trailing unit.

What the record says about O=C(O)C12CC3CC(C1)CC(C14CC5CC(CC(C(=O)NCCO)(C5)C1)C4)(C3)C2 : 11β-HSD 1 inhibitory activity (% CTL at 1 μM) is 53

What the record says about O=C(O)c1ccc(Oc2ccc3c(c2)CN(C(=O)C24CC5CC(C2)CC(C26CC7CC(CC(C(=O)O)(C7)C2)C6)(C5)C4)CC3)cc1 : 11β-HSD 1 inhibitory activity (% CTL at 1 μM) is 8

What the record says about O=C(O)C12CC3CC(C1)CC(C14CC5CC(CC(C(=O)N(CCc6ccccc6)C6CCCCC6)(C5)C1)C4)(C3)C2 : 11β-HSD 1 inhibitory activity (% CTL at 1 μM) is 53

What the record says about CN(CCc1ccccc1)C(=O)C12CC3CC(C1)CC(C14CC5CC(CC(C(=O)O)(C5)C1)C4)(C3)C2 : 11β-HSD 1 inhibitory activity (% CTL at 1 μM) is −3

What the record says about O=C(O)C12CC3CC(C1)CC(C14CC5CC(CC(C(=O)N6CCc7ccccc76)(C5)C1)C4)(C3)C2 : 11β-HSD 1 inhibitory activity (% CTL at 1 μM) is 4

What the record says about CC(C)N(C)C(=O)C12CC3CC(C1)CC(C14CC5CC(CC(C(=O)O)(C5)C1)C4)(C3)C2 : 11β-HSD 1 inhibitory activity (% CTL at 1 μM) is −26

What the record says about CN1CCN(C(=O)C23CC4CC(C2)CC(C25CC6CC(CC(C(=O)O)(C6)C2)C5)(C4)C3)CC1 : 11β-HSD 1 inhibitory activity (% CTL at 1 μM) is 37

What the record says about O=C(O)C12CC3CC(C1)CC(C14CC5CC(CC(COc6ccccn6)(C5)C1)C4)(C3)C2 : 11β-HSD 1 inhibitory activity (% CTL at 1 μM) is 34

What the record says about CNC(=O)C12CC3CC(C1)CC(C14CC5CC(CC(C(=O)O)(C5)C1)C4)(C3)C2 : 11β-HSD 1 inhibitory activity (% CTL at 1 μM) is 29

What the record says about CN(C(=O)C12CC3CC(C1)CC(C14CC5CC(CC(C(=O)O)(C5)C1)C4)(C3)C2)c1ccccc1 : 11β-HSD 1 inhibitory activity (% CTL at 1 μM) is 30

What the record says about CN(C(=O)C12CC3CC(C1)CC(C14CC5CC(CC(C(=O)O)(C5)C1)C4)(C3)C2)C1CCCNC1 (stereo not drawn) : 11β-HSD 1 inhibitory activity (% CTL at 1 μM) is 61

What the record says about O=C(O)C12CC3CC(C1)CC(C14CC5CC(CC(CO)(C5)C1)C4)(C3)C2 : 11β-HSD 1 inhibitory activity (% CTL at 1 μM) is −5

What the record says about CCN(C(=O)C12CC3CC(C1)CC(C14CC5CC(CC(C(=O)O)(C5)C1)C4)(C3)C2)C1CCCCC1 : 11β-HSD 1 inhibitory activity (% CTL at 1 μM) is −3

What the record says about CC(C)(C)OC(=O)NC12CC3CC(C1)CC(C14CC5CC(CC(C(=O)O)(C5)C1)C4)(C3)C2 : 11β-HSD 1 inhibitory activity (% CTL at 1 μM) is 26

What the record says about CC(=O)NC12CC3CC(C1)CC(C14CC5CC(CC(C(=O)O)(C5)C1)C4)(C3)C2 : 11β-HSD 1 inhibitory activity (% CTL at 1 μM) is 69
